In this section we review reported Activity values for a set of compounds.
ASSAY SYSTEM: UniProtKB Q8NER1
Sequence (Q8NER1 whole entry): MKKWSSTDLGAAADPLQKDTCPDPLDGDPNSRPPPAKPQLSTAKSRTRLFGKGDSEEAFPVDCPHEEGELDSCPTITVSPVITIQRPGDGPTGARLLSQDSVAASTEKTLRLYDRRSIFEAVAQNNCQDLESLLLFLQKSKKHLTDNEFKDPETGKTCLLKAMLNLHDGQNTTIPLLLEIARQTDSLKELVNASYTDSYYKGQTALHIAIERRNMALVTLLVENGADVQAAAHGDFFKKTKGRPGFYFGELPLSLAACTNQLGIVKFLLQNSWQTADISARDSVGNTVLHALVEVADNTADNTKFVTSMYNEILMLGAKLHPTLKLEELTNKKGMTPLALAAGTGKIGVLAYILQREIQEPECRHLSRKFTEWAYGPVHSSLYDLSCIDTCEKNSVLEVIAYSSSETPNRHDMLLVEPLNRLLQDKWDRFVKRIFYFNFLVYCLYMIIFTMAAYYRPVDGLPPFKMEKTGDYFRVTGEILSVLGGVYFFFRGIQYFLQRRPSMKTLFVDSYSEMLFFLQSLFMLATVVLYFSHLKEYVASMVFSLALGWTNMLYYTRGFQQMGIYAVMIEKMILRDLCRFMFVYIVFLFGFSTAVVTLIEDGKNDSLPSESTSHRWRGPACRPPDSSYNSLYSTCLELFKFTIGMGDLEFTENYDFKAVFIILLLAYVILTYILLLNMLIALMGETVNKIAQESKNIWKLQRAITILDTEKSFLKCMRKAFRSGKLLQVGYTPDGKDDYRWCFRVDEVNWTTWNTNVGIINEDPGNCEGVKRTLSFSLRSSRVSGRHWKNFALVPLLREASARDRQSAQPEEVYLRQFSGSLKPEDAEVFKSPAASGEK
TEST DESCRIPTION: Inhibition of human TRPV1 overexpressed in BEAS-2B cells assessed as residual activity at 250 uM after 30 mins by Fluo-4 AM fluorescence assay
Format: cell-based
The reply should be a number in %, with the unit left off.

Some solved entries appear below for comparison.
> print(dat)
                                   compound  measured.attribute  readout.unit  recorded.measurement
1            O=C(O)Cc1ccccc1Nc1c(Cl)cccc1Cl            Activity             %                    49
2  COc1ccc2c(c1)c(CC(=O)O)c(C)n2C(=O)c1ccc(Cl)cc1            Activity             %                    82

Next up:
**Query** Which measured Activity value corresponds to `COc1ccc2cc([C@H](C)C(=O)O)ccc2c1` ?
**Result** 109
